Origin of the recorded values: patent US20120121507A1

target: T1, recombinant human clusterin (human, UniProt P10909 23-449); test: SPR (BIAcore 3000), rhCLU over immobilized P3375 (1200 RU), kinetic global fit, 1:1 Langmuir
T1 construct: also called rhCLU; rh-clusterin
T1 sequence (P10909 23-449 limits assumed): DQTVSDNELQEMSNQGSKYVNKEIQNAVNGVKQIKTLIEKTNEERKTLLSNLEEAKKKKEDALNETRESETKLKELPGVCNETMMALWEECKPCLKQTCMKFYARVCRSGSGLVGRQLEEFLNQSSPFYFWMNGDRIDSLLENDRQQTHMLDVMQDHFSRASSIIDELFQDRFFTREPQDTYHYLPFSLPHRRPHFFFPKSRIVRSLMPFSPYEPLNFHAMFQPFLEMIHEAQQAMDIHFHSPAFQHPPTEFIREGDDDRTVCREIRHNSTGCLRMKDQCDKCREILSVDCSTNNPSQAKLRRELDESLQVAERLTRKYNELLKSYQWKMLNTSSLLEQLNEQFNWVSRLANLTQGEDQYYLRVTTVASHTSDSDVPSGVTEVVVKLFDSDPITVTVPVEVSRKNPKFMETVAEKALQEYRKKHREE
measureName: Kd (nM)
Quick reminder: number only, in nM, skip the unit.

Query: Given NTYWSQLLHFQTSGSGC (In SPR it was immobilised through the C-terminal Cys (thioether); In STD-NMR it was free in solution) [P3375 synthetic peptide (NTYWSQLLHFQT with C-terminal SGSGC extension)] , state its recorded Kd.
Response: 540
